Each recorded value in this set is attributed to patent US20080280879A1.

# System: Staph aureus 1146
# assay-comment: MIC, microtiter broth dilution (CLSI M7-A7), Assay 1, Table 12 column B, no serum
# Format: cell-based, Staphylococcus aureus
# condition-details: Staphylococcus aureus, 1146, Staph aureus 1146, Assay 1, no serum
Assign labels as follows, please: Yes for MIC below 1 µg/mL; No for MIC equal to or exceeding 1 µg/mL.

compound	group-label
COc1ccc2nccc([C@@H](O)CC[C@@H]3CCN(C4CC(c5ccc(Cl)cc5F)C4)C[C@@H]3C(=O)O)c2c1 (stereo partly shown)	Yes
COc1ccc2ncc(F)c(C(O)CC[C@@H]3CCN(C4CC(c5c(F)cccc5F)C4)C[C@@H]3C(=O)O)c2c1 (stereo partly shown) [Example 17]	Yes
COc1ccc2ncc(Cl)c(C(O)CCC3(C(=O)O)CCN(C4CC(c5ccccc5)C4)C3)c2c1 (stereo not shown)	Yes
COc1ccc2nccc([C@@H](O)CC[C@@H]3CCN(C4CC(c5c(F)ccc(Cl)c5F)C4)C[C@@H]3C(=O)O)c2c1 (stereo partly shown)	Yes
COc1ccc2ncc(Cl)c(C(O)CCC3(C(=O)O)CCN(C4CC(c5c(F)cccc5F)C4)C3)c2c1 (stereo not shown)	Yes
COc1ccc2nccc(C(O)CC[C@@H]3CCN(C4CC(c5cc(C)no5)C4)C[C@@H]3C(=O)O)c2c1 (stereo partly shown)	No
COc1ccc2nccc(C(O)CC[C@@H]3CCN(C4CN(C5CCOC5)C4)C[C@@H]3C(=O)O)c2c1 (stereo partly shown)	No
COc1ccc2ncc(F)c([C@@H](O)CC[C@@H]3CCN(C4CC(c5cc(F)cc(F)c5)C4)C[C@@H]3C(=O)O)c2c1 (stereo partly shown)	Yes
COc1ccc2nccc(C(=O)CC[C@@H]3CCN(C4CC(c5ccccc5)C4)C[C@@H]3C(=O)O)c2c1 (stereo partly shown)	Yes
COc1ccc2nccc([C@@H](O)CNC3CCN([C@H]4C[C@@H](c5ccccc5)C4)CC3C(=O)O)c2c1 (stereo partly shown)	No
CCCc1noc(C2CC(N3CC[C@@H](CCC(O)c4ccnc5ccc(OC)cc45)[C@@H](C(=O)O)C3)C2)n1 (stereo partly shown)	No
COc1ccc2nccc([C@@H](O)CC[C@@H]3CCN(C4CC(c5ccc(C(F)(F)F)cc5F)C4)C[C@@H]3C(=O)O)c2c1 (stereo partly shown)	No
COc1ccc2nccc(C(CC[C@@H]3CCN(C4CC(c5ccccc5)C4)C[C@@H]3C(=O)O)N(C)C)c2c1 (stereo partly shown)	No
COc1ccc2nccc([C@@H](O)CC[C@@H]3CCN(C4CC(C5CCCC5)C4)C[C@@H]3C(=O)O)c2c1 (stereo partly shown)	Yes
COc1ccc2nccc(C(O)CCC3CCN(C[C@@H]4C[C@H]4c4cc(F)ccc4F)CC3C(=O)O)c2c1 (relative stereo)	Yes
COc1ccc2ncc(F)c(C(O)COC3(C(=O)O)CCN(C4CC(c5ccccc5)C4)CC3)c2c1 (stereo not shown)	No
COc1ccc2ncc(Cl)c(CCCC3(C(=O)O)CCN(C4CCC(c5cc(F)ccc5F)C4)C3)c2c1 (stereo not shown)	Yes
COc1ccc2ncc(Cl)c(CCCC3(C(=O)O)CCN(C4CC(c5c(F)cccc5F)C4)C3)c2c1 (stereo not shown)	Yes
COc1ccc2nccc(C(O)CC[C@@H]3CCN(C4CCC(c5cc(F)ccc5F)C4)C[C@@H]3C(=O)O)c2c1 (stereo partly shown)	Yes
COc1ccc2nccc([C@@H](O)CNC3CCN([C@H]4C[C@H](c5ccccc5)C4)CC3C(=O)O)c2c1 (stereo partly shown)	No
COc1ccc2nccc(C(O)CC[C@@H]3CCN(C4CC(c5ccccc5)C4)CC3(C)C(=O)O)c2c1 (stereo partly shown)	No
COc1ccc2nccc(C(O)CC[C@@H]3CCN(C4CN(C5CCOCC5)C4)C[C@@H]3C(=O)O)c2c1 (stereo partly shown)	No
COc1ccc2ncc(F)c(C(O)CC[C@@H]3CCN(C4CC(c5ccccc5)C4)C[C@@H]3C(=O)O)c2c1 (mixture of isomers)	Yes
COc1ccc2nccc([C@@H](O)CC[C@@H]3CCN(C4CC(c5cc(C(F)(F)F)ccc5F)C4)C[C@@H]3C(=O)O)c2c1 (stereo partly shown)	No
COc1ccc2nccc(C(O)CC[C@@H]3CCN(C4CC(C)(c5ccccc5)C4)C[C@@H]3C(=O)O)c2c1 (stereo partly shown)	No

----------
# Tested on: Staph aureus 1146
# assay-comment: MIC, microtiter broth dilution (CLSI M7-A7), Assay 1, Table 12 column B, no serum
# Assay type: cell-based, Staphylococcus aureus
# condition-details: Staphylococcus aureus, 1146, Staph aureus 1146, Assay 1, no serum

compound	measured-target	unit-info	bound-type	MIC
COc1ccc2ncnc(CCCC3(C(=O)O)CCN(C4CC(c5ccccc5)C4)CC3)c2c1 (stereo not shown)	Staph aureus 1146	µg/mL	=	2
COc1ccc2ncc(Cl)c(CCNC3(C(=O)O)CCCN(C4CC(c5cccc(F)c5)C4)CC3)c2c1 (stereo not shown)	Staph aureus 1146	µg/mL	=	0.125
COc1ccc2nccc([C@@H](O)CC[C@@H]3CCN(C4CC(c5cccc(C(F)(F)F)c5F)C4)C[C@@H]3C(=O)O)c2c1 (stereo partly shown)	Staph aureus 1146	µg/mL	=	0.125
COc1ccc2ncc(F)c(C(O)CC[C@@H]3CCN(C4CC(c5cc(F)ccc5F)C4)C[C@@H]3C(=O)O)c2n1 (stereo partly shown)	Staph aureus 1146	µg/mL	<	0.0625
COc1ccc2ncc(Cl)c([C@@H](O)CNC3(C(=O)O)CCCN(C4CC(c5ccccc5)C4)CC3)c2c1 (single isomer, unassigned)	Staph aureus 1146	µg/mL	=	1
COc1ccc2nccc([C@@H](O)CC[C@@H]3CCN(C4CC(c5ccc(F)c(C#N)c5)C4)C[C@@H]3C(=O)O)c2c1 (stereo partly shown)	Staph aureus 1146	µg/mL	=	16
COc1ccc2nccc(C(O)CC[C@@H]3CCN(C4CC(c5nc(C6CC6)no5)C4)C[C@@H]3C(=O)O)c2c1 (stereo partly shown)	Staph aureus 1146	µg/mL	=	32

----------
# System: Staph aureus 2811
# assay-comment: MIC, microtiter broth dilution (CLSI M7-A7), Assay 1, Table 12 column D, no serum
# Format: cell-based, Staphylococcus aureus
# condition-details: Staph aureus 2811, Assay 1, no serum

compound	unit-info	bound-type	MIC, column D
COc1ccc2ncc(F)c(C(O)CC[C@@H]3CCN(C4CC(c5ccccc5)C4)C[C@@H]3C(=O)O)c2c1 (single isomer, unassigned)	µg/mL	=	0.125
COc1ccc2nccc([C@@H](O)CC[C@@H]3CCN(C4CC(c5cccc(C#N)c5)C4)C[C@@H]3C(=O)O)c2c1 (stereo partly drawn)	µg/mL	=	4
COc1ccc2ncc(Cl)c(C(O)CC[C@@H]3CCN(C4CC(c5c(F)cccc5F)C4)C[C@@H]3C(=O)O)c2c1 (stereo partly drawn) [Example 214]	µg/mL	<	0.0625

----------
Parameter MIC, column D: see the listing below.
# Test system: Staph aureus 2811
# assay-comment: MIC, microtiter broth dilution (CLSI M7-A7), Assay 1, Table 12 column D, no serum
# Type: cell-based, Staphylococcus aureus
# condition-details: Staph aureus 2811, Assay 1, no serum

compound	measured-target	MIC, column D
COc1ccc2ncc(F)c(C(O)CC[C@@H]3CCN(C4CC(c5c(F)cccc5F)C4)C[C@@H]3C(=O)O)c2n1 (stereo partly drawn) [Example 190]	Staph aureus 2811	<0.0625 µg/mL
COc1ccc2nccc([C@@H](O)CC[C@@H]3CCN(C4CC(C5CCCC5)C4)C[C@@H]3C(=O)O)c2c1 (stereo partly drawn)	Staph aureus 2811	0.125 µg/mL

----------
# Tested on: Staph aureus 1146
# assay-comment: MIC, microtiter broth dilution (CLSI M7-A7), Assay 1, Table 12 column B, no serum
# Type: cell-based, Staphylococcus aureus
# condition-details: Staphylococcus aureus, 1146, Staph aureus 1146, Assay 1, no serum
readout-type: log10 MIC (log10 of the value in µg/mL)

compound	log10 MIC
COc1ccc(F)c(C2CC(N3CC[C@@H](CC[C@H](O)c4ccnc5ccc(OC)cc45)[C@@H](C(=O)O)C3)C2)c1 (some centres unmarked)	0.30
COc1ccc2nccc([C@@H](O)CC[C@@H]3CCN(C4CC5c6ccccc6SC54)C[C@@H]3C(=O)O)c2c1 (some centres unmarked)	-0.60
COc1ccc2nccc([C@@H](O)CC[C@@H]3CCN(C4CC(c5c(F)cccc5F)C4(C)C)C[C@@H]3C(=O)O)c2c1 (some centres unmarked)	0.90
COc1ccc2nccc(C(O)CC[C@@H]3CCN(C4CC5(CCCC5)C4)C[C@@H]3C(=O)O)c2c1 (some centres unmarked)	0.00
COc1ccc2nccc(C(N)CC[C@@H]3CCN(C4CC(c5ccccc5)C4)C[C@@H]3C(=O)O)c2c1 (some centres unmarked)	0.00
COc1ccc2nccc(C(O)CC[C@@H]3CCN(CC4CC(c5ccccc5)C4)C[C@@H]3C(=O)O)c2c1 (mixture of isomers)	0.60
COC(=O)[C@H]1CN(C2CC(c3nnc(C)o3)C2)CC[C@H]1CCC(O)c1ccnc2ccc(OC)cc12 (some centres unmarked)	1.20
